Data origin: patent US11306084B2

- TARGET SYSTEM: Recombinant human integrin ανβ6 (Homo sapiens, UniProt P06756+P18564)
- Sequence (P06756 31-992 limits assumed): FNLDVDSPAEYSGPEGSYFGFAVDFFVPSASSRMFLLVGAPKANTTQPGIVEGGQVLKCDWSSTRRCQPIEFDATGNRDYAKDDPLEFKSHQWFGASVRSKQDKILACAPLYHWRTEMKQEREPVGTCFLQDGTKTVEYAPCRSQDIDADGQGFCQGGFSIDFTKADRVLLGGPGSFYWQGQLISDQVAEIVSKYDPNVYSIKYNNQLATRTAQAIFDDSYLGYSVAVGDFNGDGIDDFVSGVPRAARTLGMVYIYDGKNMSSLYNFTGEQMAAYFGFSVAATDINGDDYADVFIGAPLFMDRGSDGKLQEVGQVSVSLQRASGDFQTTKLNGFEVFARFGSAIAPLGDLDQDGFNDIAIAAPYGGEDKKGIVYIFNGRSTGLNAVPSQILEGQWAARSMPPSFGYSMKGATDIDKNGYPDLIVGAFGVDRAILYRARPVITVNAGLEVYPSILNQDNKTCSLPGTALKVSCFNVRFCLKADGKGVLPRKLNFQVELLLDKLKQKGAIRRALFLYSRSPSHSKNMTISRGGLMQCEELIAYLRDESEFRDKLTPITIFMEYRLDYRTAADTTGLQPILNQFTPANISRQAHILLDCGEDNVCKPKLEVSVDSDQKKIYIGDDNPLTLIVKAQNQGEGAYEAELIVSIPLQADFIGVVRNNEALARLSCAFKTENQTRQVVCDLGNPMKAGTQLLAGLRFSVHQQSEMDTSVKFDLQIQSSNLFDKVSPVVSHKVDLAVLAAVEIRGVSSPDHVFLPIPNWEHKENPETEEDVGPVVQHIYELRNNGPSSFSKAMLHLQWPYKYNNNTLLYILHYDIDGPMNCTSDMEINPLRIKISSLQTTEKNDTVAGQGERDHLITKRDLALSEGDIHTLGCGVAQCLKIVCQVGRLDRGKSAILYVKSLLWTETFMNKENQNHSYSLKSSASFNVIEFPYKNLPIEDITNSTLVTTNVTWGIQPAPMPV
- Sequence (P18564 22-707 limits assumed): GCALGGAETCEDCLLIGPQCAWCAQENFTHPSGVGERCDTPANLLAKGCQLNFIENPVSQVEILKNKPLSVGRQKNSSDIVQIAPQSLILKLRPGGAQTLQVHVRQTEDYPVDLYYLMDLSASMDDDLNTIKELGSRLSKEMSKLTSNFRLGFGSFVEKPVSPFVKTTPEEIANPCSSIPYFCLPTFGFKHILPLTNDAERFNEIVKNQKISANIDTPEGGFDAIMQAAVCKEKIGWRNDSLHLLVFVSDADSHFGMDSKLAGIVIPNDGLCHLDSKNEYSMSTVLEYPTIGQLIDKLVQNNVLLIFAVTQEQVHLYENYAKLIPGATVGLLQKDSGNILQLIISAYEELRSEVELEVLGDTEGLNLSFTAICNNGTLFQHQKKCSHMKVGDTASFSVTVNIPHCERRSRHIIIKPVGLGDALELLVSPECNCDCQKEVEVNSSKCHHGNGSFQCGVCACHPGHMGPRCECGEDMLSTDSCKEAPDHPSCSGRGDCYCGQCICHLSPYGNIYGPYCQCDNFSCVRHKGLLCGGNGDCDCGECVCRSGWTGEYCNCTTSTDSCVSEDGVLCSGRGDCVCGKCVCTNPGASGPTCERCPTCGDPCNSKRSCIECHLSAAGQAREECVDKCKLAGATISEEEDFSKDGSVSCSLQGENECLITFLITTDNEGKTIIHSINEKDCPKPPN
- ASSAY EXPLANATION: Solid Phase Receptor Assay (SPRA) for ανβ6 function
- CONDITION CONTEXT: plate-bound human LAP; read-out: αvβ6 SPRA IC50
- Description: E. Solid Phase Receptor Assay (SPRA) for ανβ6 Function Wells were washed 3 times with 150 μL TBS+, and then 150 μL of blocking buffer (TBS+ with 1% bovine serum albumin, Sigma A7906) was added. The plate was incubated for 1 hr at 37° C., and then washed 3× with TBS+ buffer. […] 25 μL of 1.0 M phosphoric acid was added as a stop solution and the plates were read at 450 nm using a Spectramax plate reader.
Structures can show the parent of a compound that is named as a salt.
# class assignment by measured IC50: LOW: < 50 nM; MEDIUM: ≥ 50 nM and < 100 nM; HIGH: ≥ 100 nM

Record excerpt, results attached:
Cn1nc(CC(CC(=O)O)c2cc(Br)cc(C(C)(C)C(F)(F)F)c2)cc1OCCc1ccc2c(n1)NCCC2 (stereo not drawn) ... LOW
COc1ccc(C(N)=O)cc1C(CC(=O)O)Cc1cc(OCCc2ccc3c(n2)NCCC3)n(C)n1 (stereo not drawn) [Example 47, trifluoroacetate] ... MEDIUM
COCC1(c2cc(F)cc(C(CC(=O)O)Cc3cc(OCCc4ccc5c(n4)NCCC5)n(C)n3)c2)CCOCC1 (stereo not drawn) ... HIGH
COc1ccc(C(C)C)cc1C(CC(=O)O)Cc1cc(OCCc2ccc3c(n2)NCCC3)n(C)n1 (stereo not drawn) [Example 39, Trifluoroacetate] ... HIGH
CC(C)c1cc(Br)cc(C(CC(=O)O)Cc2cc(OCCc3ccc4c(n3)NCCC4)n(C)n2)c1 (stereo not drawn) [Example 40, trifluoroacetate] ... MEDIUM

Category lookup for the molecule Cn1nc(CC(CC(=O)O)c2cc(Cl)cc(C3(C(F)F)CC3)c2)cc1OCCc1ccc2c(n1)NCCC2 (stereo not drawn) LOW

Category lookup for the molecule Cn1nc(CC(CC(=O)O)c2ccc(C#N)c(F)c2)cc1OCCc1ccc2c(n1)NCCC2 (stereo not drawn) MEDIUM

Category lookup for the molecule Cn1nc(CC(CC(=O)O)c2ccc(F)c(Br)c2)cc1OCCc1ccc2c(n1)NCCC2 (stereo not drawn) MEDIUM

Category lookup for the molecule CC(C)Oc1ccc(C(C)(C)C)cc1C(CC(=O)O)Cc1cc(OCCc2ccc3c(n2)NCCC3)n(C)n1 (stereo not drawn) [Example 35, Trifluoroacetate] HIGH

Category lookup for the molecule Cn1nc(CC(CC(=O)O)c2cc(C(C)(C)C)ccc2O)cc1OCCc1ccc2c(n1)NCCC2 (stereo not drawn) [Example 42, Sodium Salt] LOW

Category lookup for the molecule Cn1nc(CC(CC(=O)O)c2cc(Cl)cc(C(C)(C)C(F)(F)F)c2)cc1OCCc1ccc2c(n1)NCCC2 (stereo not drawn) LOW

Category lookup for the molecule Cn1nc(CC(CC(=O)O)c2cc(C(C)(C)C)cc(C(C)(C)C)c2)cc1OCCc1ccc2c(n1)NCCC2 (stereo not drawn) HIGH
